# subjectOfTest: recombinant soluble homotrimeric HA, A/northern shoveler/California/HKWF115/07 H6N4 (Influenza A virus A/northern shoveler/California/HKWF115/2007(H6N1))
# protocolDescription: microarray, transfection SN IgG, trimeric HA
# conditionSummary: remark: other sources report otherwise
Answer each item with its documented log10(Trimeric HA Binding: RLU).
Heads up: the numbers are on a log10 scale; they represent Trimeric HA Binding: RLU in RLU.

*Q* Please report the recorded log10(Trimeric HA Binding: RLU) for TCN-550 (5096_F06) (antibody, V domains shown) VH: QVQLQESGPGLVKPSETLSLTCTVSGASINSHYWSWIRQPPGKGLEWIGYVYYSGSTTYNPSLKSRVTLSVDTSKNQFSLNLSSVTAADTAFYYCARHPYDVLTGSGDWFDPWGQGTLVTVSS VL: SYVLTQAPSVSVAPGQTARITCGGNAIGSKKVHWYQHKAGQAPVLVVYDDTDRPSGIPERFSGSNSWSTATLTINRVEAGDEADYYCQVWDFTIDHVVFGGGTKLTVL .
*A* 3.36

*Q* Please report the recorded log10(Trimeric HA Binding: RLU) for TCN-553 (5261_C18) (antibody, V domains shown) VH: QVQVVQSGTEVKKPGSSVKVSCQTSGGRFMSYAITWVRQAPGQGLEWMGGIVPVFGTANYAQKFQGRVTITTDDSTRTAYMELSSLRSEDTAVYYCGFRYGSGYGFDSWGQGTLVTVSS VL: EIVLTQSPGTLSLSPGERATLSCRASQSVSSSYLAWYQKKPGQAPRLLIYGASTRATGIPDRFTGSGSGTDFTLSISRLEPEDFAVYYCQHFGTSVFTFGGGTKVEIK .
*A* 4.51

*Q* Please report the recorded log10(Trimeric HA Binding: RLU) for TCN-554 (5277_M05) (antibody, V domains shown) VH: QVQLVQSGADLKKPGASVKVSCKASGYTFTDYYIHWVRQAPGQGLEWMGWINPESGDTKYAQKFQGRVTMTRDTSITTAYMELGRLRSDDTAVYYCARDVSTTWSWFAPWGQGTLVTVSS VL: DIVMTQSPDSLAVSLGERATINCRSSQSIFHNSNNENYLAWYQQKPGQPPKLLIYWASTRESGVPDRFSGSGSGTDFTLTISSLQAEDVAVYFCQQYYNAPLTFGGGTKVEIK .
*A* 3.53

*Q* Please report the recorded log10(Trimeric HA Binding: RLU) for TCN-557 (5081_A04) (antibody, V domains shown) VH: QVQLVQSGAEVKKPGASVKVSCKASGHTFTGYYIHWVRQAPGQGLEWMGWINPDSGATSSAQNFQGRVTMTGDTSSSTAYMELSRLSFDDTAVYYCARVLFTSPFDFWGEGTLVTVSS VL: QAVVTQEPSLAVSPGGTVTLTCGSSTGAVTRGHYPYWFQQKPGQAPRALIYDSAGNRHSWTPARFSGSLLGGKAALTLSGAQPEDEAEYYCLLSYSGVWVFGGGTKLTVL .
*A* 4.70

*Q* Please report the recorded log10(Trimeric HA Binding: RLU) for TCN-547 (5092_F11) (antibody, V domains shown) VH: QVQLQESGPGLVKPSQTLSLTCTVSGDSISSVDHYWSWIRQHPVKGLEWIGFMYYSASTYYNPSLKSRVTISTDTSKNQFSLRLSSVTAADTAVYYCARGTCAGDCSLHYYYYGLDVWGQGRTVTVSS VL: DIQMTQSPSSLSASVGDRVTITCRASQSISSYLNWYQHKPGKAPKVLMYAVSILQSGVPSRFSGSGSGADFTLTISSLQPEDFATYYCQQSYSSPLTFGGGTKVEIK .
*A* 3.42
